- Protocol notes: yeast display, Sf9 membrane polyspecificity reagent, FACS + sequencing; frameworks hold sequencing errors
Measurement kind: polyreactivity (PSR sort gate)

Examples from the recorded data:
QVQLVESGGGLVQAGVSLRLICAASGFIFPTKVMGWYRQAPATEREFVASITWRGGGTFYADSVKGRFTISRDNAKNTVYLQMNRLKPEDTAVYYCAAGRSWSSFWKYDYWGQGTQVTVSS; low polyreactivity
QVQLVESGGGLVQAGGSLRLSCDASGFTFYYYAMGWYRPAPGKERELVAAISSSGSSTYYADSVKGRFTISRDNAKNTVYLQMNSLKPEDTAVYYCNARRYEYLWGDYWGQGTQVTVSS; high polyreactivity
QVQLVESGGGLVQAGGSLRLSCAASGIIFYLYVMGWYRQAPGKERELVAVISYSGDDTYYADSVKVRFTISRDNAKNTVYLQMNSLKPEDTAVYYCAADSIGYGFDYWGQGTQVTVSS; low polyreactivity
QVQLVDSGGGLVQAGGSLRLSCAASGYTLDGNAMGWYRQAPGKQREFVAAITIRGGGTYYADSVKGRFTISRDNAKNTDYVQMNSLKPEDSAVYYCNADTYDPFPWGSDYWGQGTQVTVSS; high polyreactivity
HVQLEESGGGLVQAGGSLRLTCAASGSIFYAYAMGWYIPATGKERELVAVISNGGGSTYYADSVKGRFTISRDNSKNSVYLQMNSVKPEDTAVYFCAAVLAESVYYSDYDYWGQGTQVTVSS; low polyreactivity

Annotate the sequence `QVQLVESGGGLVQAGGSLRLSCAASGRIFWRNAMGWSRQAPGKERELVAAISSGGSTYYADSVKGRFTISRDNAKNTVYLQMNSLKPEDTAVYYCAARSSWRGVRYDHFERVYWGQGTQVTVSS` with its measured polyreactivity (PSR sort gate). high polyreactivity

Annotate the sequence `QVQLVESGVGLVLAGGSLRLSCAASGRTFWSYAMGWYRKAPGKERELVAAITWSGTSTDYAVSVKGRFTISRDNAKNRVYLLMKSLKPEDTAVYYCAAIVYGQYRSRYYYWGQGTEVTVSS` with its measured polyreactivity (PSR sort gate). high polyreactivity

Annotate the sequence `QVQLVESGGGLVQAGGSLRLSCAASGIIFLGNAMGWYRQAPGKERELVAAITASGTSTYYADSVKGRFTISRDNAKNTVYLQMNSLKPEDTAVYYCAAQSTWYDYYYWGQGTQVTVSS` with its measured polyreactivity (PSR sort gate). low polyreactivity

Annotate the sequence `QVQLVESGGGLVQAGGSLRLSCAASGRIFYRYARGWYRQAPGKEREFVAAISGTGGSTYYADSVKGRFTISRDNAKNTVYLQMNSLKPEDTAVYYCAAFSYYSSGYDYWGQGTQVTVSS` with its measured polyreactivity (PSR sort gate). high polyreactivity

Annotate the sequence `QVQLVESGGGLVQAGGSLRLSCAASGSIFYVYAMGWYRQAPGKERELVAAITNYADSVMGRFTISRDNAKNTVYLQMNSLKPEDTAVYYCAADWWRVEMDYWGLGTQVTVSS` with its measured polyreactivity (PSR sort gate). low polyreactivity
